Target: DRB1*0901 (Homo sapiens, UniProt P01903+P01911, A100R/A103E/D57H/D86V/F55Y/F60I/F76Y/I96F/K127E/L162R/M171V/P40D/Q125H/Q99R/R33Q/R42F/S133A/S66N/T210M/V115G/W38K/Y107V/Y59G/Y89S)
Experiment: biochemical
Type: binding
Conditions: competitive inhibition of radiolabeled standard peptide; '-' distinct from ND; read-out: Binding Affinity (nM) DRB1*0901
Below, each of the compounds is paired with its reported IC50 value.
ASSAY_READOUT: IC50 (nM)

| COMPOUND | ASSAY_READOUT | MEASUREMENT |
| --- | --- | --- |
| CC[C@H](C)[C@H](NC(=O)[C@H](CC(C)C)NC(=O)[C@H](CC(N)=O)NC(=O)[C@H](Cc1ccc(O)cc1)NC(=O)[C@H](CC(N)=O)NC(=O)[C@@H]1CCCN1)C(=O)N[C@H](C(=O)N[C@@H](CCSC)C(=O)N[C@@H](CC(=O)O)C(=O)N[C@@H](CCC(=O)O)C(=O)N[C@@H](C)C(=O)N[C@@H](Cc1c[nH]cn1)C(=O)N[C@@H](Cc1ccccc1)C(=O)N[C@H](C(=O)N[C@@H](CC(=O)O)C(=O)O)[C@@H](C)O)[C@@H](C)CC [NS3 277-291] | IC50 | 2600 |
| CC[C@H](C)[C@H](NC(=O)[C@H](CC(=O)O)NC(=O)[C@@H](N)CC(C)C)C(=O)N[C@@H](CCC(=O)O)C(=O)N[C@@H](CC(C)C)C(=O)N[C@@H](CCC(N)=O)C(=O)N[C@@H](CCCCN)C(=O)N[C@H](C(=O)N[C@@H](CCC(=O)O)C(=O)N[C@@H](C)C(=O)N[C@H](C(=O)N[C@@H](CCC(N)=O)C(=O)N[C@@H](CC(C)C)C(=O)N[C@@H](C)C(=O)N[C@H](C(=O)O)[C@@H](C)O)[C@@H](C)O)[C@@H](C)O [Envelope 41-55] | IC50 | 132 |
| CC[C@H](C)[C@H](NC(=O)[C@H](CC(=O)O)NC(=O)CNC(=O)[C@@H](NC(=O)[C@@H](NC(=O)[C@@H](NC(=O)[C@@H](NC(=O)[C@H](CC(C)C)NC(=O)[C@@H](N)CCCCN)[C@@H](C)O)C(C)C)C(C)C)C(C)C)C(=O)N[C@H](C(=O)NCC(=O)N[C@H](C(=O)N[C@@H](CC(C)C)C(=O)N[C@@H](CCC(=O)O)C(=O)N[C@@H](CCC(N)=O)C(=O)O)C(C)C)[C@@H](C)CC [NS1 85-99] | IC50 | 42 |

====

Target: DRB3*0101 (Homo sapiens, UniProt P01903+P79483)
Experiment: biochemical
pIC50: −log10 of the molar value.

| STRUCTURE_NOTATION | pIC50 |
| --- | --- |
| CC(C)C[C@H](N)C(=O)N[C@H](C(=O)N[C@@H](Cc1ccc(O)cc1)C(=O)N[C@@H](CCC(N)=O)C(=O)N[C@@H](CC(N)=O)C(=O)N[C@@H](CCCCN)C(=O)N[C@H](C(=O)N[C@H](C(=O)N[C@@H](CCCCN)C(=O)N[C@H](C(=O)N[C@@H](CCC(N)=O)C(=O)N[C@@H](CCCNC(=N)N)C(=O)N1CCC[C@H]1C(=O)N[C@H](C(=O)N1CCC[C@H]1C(=O)N[C@@H](CCCCN)C(=O)NCC(=O)O)[C@@H](C)O)C(C)C)C(C)C)C(C)C)[C@@H](C)O | 5.34 |

These entries and their values trace back to paper PMC3794980.
